Where do the numbers come from? From PubChem BioAssay (NCI).

- Test system: IGROV1 ovarian
- EXPERIMENTAL_PROTOCOL: NCI tumour cell line growth inhibition, 48 h; in the data active = GI50 below about 0.43 µM; inactive = the rest
I would appreciate it if you answered using one of these outcomes: label 1 for active, label 0 for inactive

Prompt line: Please let me know the test result on file for CCCCNC(=O)c1cc(NCc2cc(O)ccc2O)ccc1O .
Response line: label 0

Prompt line: Please let me know the test result on file for COc1cc(-c2cc(/C=C/C(=O)c3ccc(Cl)c(Cl)c3)[nH]n2)cc(OC)c1OC .
Response line: label 0

Prompt line: Please let me know the test result on file for C/C=C/[C@H]1O[C@@H]2C(=C[C@H]1O)C(=O)O[C@H]2C .
Response line: label 0

Prompt line: Please let me know the test result on file for CN1CCN(c2nc(NCCCNc3ccnc4cc(Cl)ccc34)c3ccccc3n2)CC1 .
Response line: label 0

Prompt line: Please let me know the test result on file for COc1ccc2c(Cl)cc(NC(=O)Nc3c(C)cccc3C)nc2c1 .
Response line: label 0

Prompt line: Please let me know the test result on file for COc1cc2ncnc(Nc3ccc4c(cnn4Cc4ccccc4)c3)c2cc1OC .
Response line: label 0

Prompt line: Please let me know the test result on file for COc1ccc(/C=C2\CN(Cc3cn(CCNc4ccnc5cc(Cl)ccc45)nn3)C/C(=C\c3ccc(OC)c(OC)c3)C2=O)cc1OC .
Response line: label 0

Prompt line: Please let me know the test result on file for CN1CCN(Cc2ccc(NC(=O)c3cncc(C#Cc4cncc5nccnc45)c3)cc2C(F)(F)F)CC1 .
Response line: label 0

Prompt line: Please let me know the test result on file for CCN(CC)CCN(Cc1ccc(F)cc1)c1ccc(CO)c(Cl)c1 .
Response line: label 0

Prompt line: Please let me know the test result on file for CCCCc1n(Cc2ccc3ccccc3c2)cc[n+]1Cc1ccc2ccccc2c1 .
Response line: label 0

Prompt line: Please let me know the test result on file for Cc1ccc(C(SCC(N)C(=O)O)(c2ccccc2)c2ccccc2)cc1 (stereo unspecified) .
Response line: label 1
